Recorded values, source patent US20250289789A1.

# Measured Target: CDK1-NanoLuc fusion with CCNB1 in 293T or 293 cells (Homo sapiens)
# Construct: host or cells: 293T (ATCC CRL-3216) or 293 (ATCC CRL-1573)
# Sequence (P06493 whole entry, the tested form may be a part): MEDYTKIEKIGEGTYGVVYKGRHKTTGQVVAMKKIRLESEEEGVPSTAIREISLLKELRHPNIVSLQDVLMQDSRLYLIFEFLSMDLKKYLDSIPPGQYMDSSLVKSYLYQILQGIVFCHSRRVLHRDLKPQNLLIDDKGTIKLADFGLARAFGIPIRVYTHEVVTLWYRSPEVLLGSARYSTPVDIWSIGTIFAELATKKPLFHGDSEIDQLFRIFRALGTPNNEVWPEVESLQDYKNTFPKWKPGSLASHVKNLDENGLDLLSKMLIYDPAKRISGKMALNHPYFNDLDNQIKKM
# Sequence (P14635 whole entry partner, the tested form may be a part): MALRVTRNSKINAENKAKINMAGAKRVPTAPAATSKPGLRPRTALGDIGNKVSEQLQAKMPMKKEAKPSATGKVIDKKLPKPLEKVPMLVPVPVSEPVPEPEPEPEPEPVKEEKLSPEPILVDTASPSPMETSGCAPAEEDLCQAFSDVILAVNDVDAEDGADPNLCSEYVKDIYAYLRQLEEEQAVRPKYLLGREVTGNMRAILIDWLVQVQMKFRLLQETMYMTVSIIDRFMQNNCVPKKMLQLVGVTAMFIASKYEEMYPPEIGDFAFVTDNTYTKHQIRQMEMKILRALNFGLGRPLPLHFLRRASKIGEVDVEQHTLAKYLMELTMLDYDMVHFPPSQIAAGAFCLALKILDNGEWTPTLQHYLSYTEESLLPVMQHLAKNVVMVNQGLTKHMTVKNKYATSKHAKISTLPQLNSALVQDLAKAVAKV
# Assay Notes: NanoBRET Target Engagement (TE) Intracellular Kinase Assay, CDK1/CCNB1
# Format: cell-based
# Assay Context: NanoBRET TE intracellular kinase assay, 2-hour incubation, read-out: NanoBRET-CDK1/B1 IC50
Reported log10(IC50) by item:
Heads up: the numbers are on a log10 scale; they represent IC50 in nM.

Reported CDK1-NanoLuc fusion with CCNB1 in 293T or 293 cells (Homo sapiens) log10(IC50) for item `CC(C)NC(=O)O[C@@H]1CC[C@H](c2cc(NC(=O)c3cc(C(=O)Nc4cccc(O)c4C=O)nn3C)n[nH]2)C1` was 2.17

log10(IC50) of `C#CC1(NC(=O)O[C@@H]2CC[C@H](c3cc(NC(=O)COc4cc(OC)cc(O)c4C=O)n[nH]3)C2)CC1` , assay on CDK1-NanoLuc fusion with CCNB1 in 293T or 293 cells (Homo sapiens), is 0.74

Entry `Cc1ncc(Oc2cccc(O)c2C=O)nc1C(=O)Nc1cc([C@H]2CC[C@@H](OC(=O)NC(C)C)C2)[nH]n1` , CDK1-NanoLuc fusion with CCNB1 in 293T or 293 cells (Homo sapiens) data, log10(IC50) value: 2.53

Bench note, CDK1-NanoLuc fusion with CCNB1 in 293T or 293 cells (Homo sapiens): entry `C#C[C@@H]1CCCN1C(=O)O[C@@H]1CC[C@H](c2cc(NC(=O)COc3cc(OC)cc(O)c3C=O)n[nH]2)C1` , its log10(IC50) = 0.88

log10(IC50) on CDK1-NanoLuc fusion with CCNB1 in 293T or 293 cells (Homo sapiens) for `COc1cc(O)c(C=O)c(OCC(=O)Nc2cc([C@H]3CC[C@@H](OC(=O)N4CC[C@@H](F)C4)C3)[nH]n2)c1` is 0.87

The value of log10(IC50) recorded for COc1cc(O)c(C=O)c(OCC(=O)Nc2cc([C@H]3C[C@@H](OC(=O)NC(C)C)C3)[nH]n2)c1 [Compound 113] when tested on CDK1-NanoLuc fusion with CCNB1 in 293T or 293 cells (Homo sapiens) reads 1.06

Known value: CDK1-NanoLuc fusion with CCNB1 in 293T or 293 cells (Homo sapiens) log10(IC50) of the compound `CC(C)NC(=O)O[C@@H]1CC[C@H](c2cc(NC(=O)[C@H]3C[C@H](c4cccc(O)c4C=O)C3)n[nH]2)C1` equals 1.08

Per the reported CDK1-NanoLuc fusion with CCNB1 in 293T or 293 cells (Homo sapiens) data, `CC(C)NC(=O)O[C@@H]1CC[C@H](c2cc(NC(=O)c3cc(OCc4cccc(O)c4C=O)nn3C)n[nH]2)C1` has log10(IC50) of 2.18

log10(IC50) of `COc1cc(O)c(C=O)c(OCC(=O)Nc2cc([C@H]3CC[C@@H](OC(=O)N4CC5CC(C4)O5)C3)[nH]n2)c1` , assay on CDK1-NanoLuc fusion with CCNB1 in 293T or 293 cells (Homo sapiens), is 1.69

Measured log10(IC50) (CDK1-NanoLuc fusion with CCNB1 in 293T or 293 cells (Homo sapiens)), entry `COc1cc(O)c(C=O)c(OCC(=O)Nc2cc([C@H]3CC[C@@H](OC(=O)NC[C@@H](C)OC)C3)[nH]n2)c1` : 1.62

Response field log10(IC50) (CDK1-NanoLuc fusion with CCNB1 in 293T or 293 cells (Homo sapiens)) for item COc1cc(O)c(C=O)c(OCC(=O)Nc2cc([C@@H]3CCC(OC(=O)N4CCCC4)C3)[nH]n2)c1 (some centres unmarked) : 1.36

Entry `CC(C)NC(=O)O[C@@H]1CC[C@H](c2cc(NC(=O)c3cc(-c4cccc(NS(C)(=O)=O)c4C=O)nn3C)n[nH]2)C1` : log10(IC50) on CDK1-NanoLuc fusion with CCNB1 in 293T or 293 cells (Homo sapiens) = 1.31
